// data source = patent US20100261711A1

# tested-system: GABAA/α1 (α1β3γ2 GABAA receptors) (Homo sapiens, UniProt P14867+P18507)
# Construct: expressed in transfected cells
# protocol-notes: Competitive binding assay, [3H]flunitrazepam
# protocol-conditions: Binding Affinity at GABAA/α1, αxβ3γ2, [3H]flunitrazepam competition
# Procedure: The GABAA subunit selectivity of several compounds prepared as described above were determined using competitive binding assays. […] Membranes were harvested with a Brandel cell harvester followed by three ice-cold washes onto polyethyleneimine-pretreated (0.3%) Whatman GF/C filters. […] Bound radioactivity was quantified by liquid scintillation counting. Membrane protein concentrations were determined using an assay kit from Bio-Rad (Hercules, Calif.) with bovine serum albumin as the standard.
measured-attribute: pKi
When answering, recall that pKi equals minus log10 of the concentration in mol/L, and write that number alone.

Request: // query pKi value for entry C#Cc1ccc2c(c1)C(c1ccccc1)=N[C@@H](C)c1nnc(C)n1-2
Result: 6.97

Request: What does the data say about its pKi? Entry: C#Cc1ccc2c(c1)C(c1ccccc1)=N[C@H](C)c1nnc(C)n1-2
Result: 5.13

Request: Tell me the measured pKi of O=C(OCC(F)(F)F)c1ncn2c1CN=C(c1ccccc1F)c1cc(Br)ccc1-2 , please.
Result: 8.73

Request: Data request, read-out pKi, for C#Cc1ccc2c(c1)C(c1ccccc1F)=NCc1c(C(=O)OCC)ncn1-2
Result: 7.66

Request: Form field: reported pKi of C#Cc1ccc2c(c1)C(c1ccccc1)=NC(C)c1c(C(=O)OCC)ncn1-2 (single isomer, unassigned) [SH-053-S-CH3]
Result: 5.78

Request: I'd like to know its pKi. The compound in question is C#Cc1ccc2c(c1)C(c1ccccc1)=NCc1c(C(=O)OCC(F)(F)F)ncn1-2
Result: 5.24

Request: Recorded pKi of C#Cc1ccc2c(c1)C(c1ccccc1)=NC(C)c1c(C(=O)OCC)ncn1-2 (single isomer, unassigned) [SH-053-R-CH3] , please.
Result: 5.69

Request: Consider the compound C[Si](C)(C)C#Cc1ccc2c(c1)C(c1ccccc1F)=NCc1c(C(=O)OCC(F)(F)F)ncn1-2 and give its measured pKi.
Result: 7.11

* * *

# tested-system: GABAA/α6 (α6β3γ2 GABAA receptors) (Homo sapiens, UniProt P18507+Q16445)
# Construct: expressed in transfected cells
# protocol-notes: Competitive binding assay, [3H]flunitrazepam
# protocol-conditions: αxβ3γ2, [3H]flunitrazepam competition; read-out: Binding Affinity at GABAA/α6
measured-attribute: pKi
Recall that pKi is obtained by taking minus log10 of the concentration measured in molar.

Request: Any idea what its pKi is? The compound is C[Si](C)(C)C#Cc1ccc2c(c1)C(c1ccccc1F)=NCc1c(C(=O)OCC(F)(F)F)ncn1-2
Result: 5.44

* * *

# tested-system: GABAA/α5 (α5β3γ2 GABAA receptors) (Homo sapiens, UniProt P18507+P31644)
# Construct: expressed in transfected cells
# protocol-notes: Competitive binding assay, [3H]flunitrazepam
# protocol-conditions: Binding Affinity at GABAA/α5, αxβ3γ2, [3H]flunitrazepam competition
Assignment: determine reported Ki for the given compounds.
# number only, unit µM dropped from output

Request: Given the compound C#Cc1ccc2c(c1)C(c1ccccc1)=NCC(=O)N2C , what is its reported Ki?
Result: 0.0068

Request: Value lookup for Ki; key = C#Cc1ccc2c(c1)C(c1ccccc1)=N[C@@H](C)c1nnc(C)n1-2
Result: 0.0081

Request: Any idea what its Ki is? The compound is C#Cc1ccc2c(c1)C(c1ccccc1F)=NCc1c(C(=O)OCC)ncn1-2
Result: 0.000671

Request: Entry under review: C#Cc1ccc2c(c1)C(c1ccccc1)=N[C@H](C)c1nnc(C)n1-2 . Reported Ki?
Result: 1.95

Request: Look up Ki for this compound: C#Cc1ccc2c(c1)C(c1ccccc1)=NCc1c(C(=O)OCC(F)(F)F)ncn1-2
Result: 0.198

Request: # Ki lookup, item C#Cc1ccc2c(c1)C(c1ccccc1)=NC(C)c1c(C(=O)OCC)ncn1-2 (single isomer, unassigned) [SH-053-R-CH3]
Result: 0.949

Request: Fill blank: measured Ki of the compound C#Cc1ccc2c(c1)C(c1ccccc1)=NC(C)c1c(C(=O)OCC)ncn1-2 (single isomer, unassigned) [SH-053-S-CH3] is ____.
Result: 0.206

Request: Request the reported Ki associated with C#Cc1ccc2c(c1)C(c1cccs1)=NCc1c(C(=O)OCC)ncn1-2
Result: 0.0143

Request: What value of measured Ki is listed for O=C(OCC(F)(F)F)c1ncn2c1CN=C(c1ccccc1F)c1cc(Br)ccc1-2 ?
Result: 0.0067
